Settings: in ethylene glycol, 298.15 K
QUANTITY KIND: solubility (mole fraction)

[ask] What solubility (mole fraction) value was documented for this compound, Nc1c(Cl)cc([N+](=O)[O-])cc1Cl ?
[reply] 0.00167

Every entry's value here was drawn from BigSolDB 2.1.
